IC50, G protein-coupled receptor kinase 5 (Bos taurus): measured values
Your answer is read as µM, so omit the unit and give the number.

CCCn1c(CNc2cccc(C(=O)NCc3c(F)cccc3F)c2)nnc1-c1ccncn1 : 2.2

Input: Look up and report IC50, with G protein-coupled receptor kinase 5 (Bos taurus) as system, for O=C(NCc1ncc[nH]1)c1cc([C@@H]2CCNC[C@H]2COc2ccc3c(c2)OCO3)ccc1F
Sequence (P43249 whole entry): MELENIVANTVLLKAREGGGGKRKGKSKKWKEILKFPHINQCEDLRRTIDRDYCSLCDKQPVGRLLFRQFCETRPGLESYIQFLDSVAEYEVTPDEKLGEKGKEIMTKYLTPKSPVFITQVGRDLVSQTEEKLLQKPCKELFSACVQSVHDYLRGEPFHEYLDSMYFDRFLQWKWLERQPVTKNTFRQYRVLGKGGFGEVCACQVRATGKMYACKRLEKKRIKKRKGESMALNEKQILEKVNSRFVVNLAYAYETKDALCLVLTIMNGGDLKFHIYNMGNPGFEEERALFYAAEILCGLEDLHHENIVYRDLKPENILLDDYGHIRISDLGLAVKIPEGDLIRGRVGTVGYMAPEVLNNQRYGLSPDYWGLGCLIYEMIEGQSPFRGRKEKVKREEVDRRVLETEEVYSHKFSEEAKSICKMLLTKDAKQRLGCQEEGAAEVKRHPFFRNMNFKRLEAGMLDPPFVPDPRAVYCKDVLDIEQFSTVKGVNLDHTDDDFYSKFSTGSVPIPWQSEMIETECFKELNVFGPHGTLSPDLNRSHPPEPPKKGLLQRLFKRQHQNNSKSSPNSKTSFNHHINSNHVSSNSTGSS
Output: 14.8

====

Tested on: Liver
test name: Half life in CD-1 mouse liver microsomes at 1 uM measured up to 60 mins in presence of NADPH by LC-MS/MS analysis
Type: ADME, microsome
experimental context: 1 h
Values of t1/2 greater than or equal to 10 min map to 1.0; values below map to 0.0.

Input: Exam item: decide whether the reported t1/2 for Fc1ccc([C@@H]2CCNC[C@H]2COc2ccc3c(c2)OCO3)cc1 is at least 10 min.
Output: 1.0

Input: Can Cc1cc(CNC(=O)c2cc([C@@H]3CCNC[C@H]3COc3ccc4c(c3)OCO4)ccc2F)n[nH]1 be said to have t1/2 at or above 10 min?
Output: 1.0

Input: Is reported t1/2 greater than or equal to 10 min here: O=C(NCc1c(Cl)cccc1Cl)c1cc([C@@H]2CCNC[C@H]2COc2ccc3c(c2)OCO3)ccc1F
Output: 1.0

Input: Item O=C(NCc1ccccn1)c1cc([C@@H]2CCNC[C@H]2COc2ccc3c(c2)OCO3)ccc1F with t1/2 of 10 min or above?
Output: 0.0

Input: Please check the record COc1cccc(OC)c1CNC(=O)c1cc(C2NC(=O)NC(C)=C2C(=O)Nc2ccc3[nH]ncc3c2)ccc1F (stereo not drawn) and state if its t1/2 is at or above 10 min.
Output: 0.0

Input: Is t1/2 for Cc1cccc(C)c1CNC(=O)c1cc([C@@H]2CCNC[C@H]2COc2ccc3c(c2)OCO3)ccc1F at or above 10 min?
Output: 1.0

Input: Decide: is the reported value of t1/2 for CC1=C(C(=O)Nc2ccc3[nH]ncc3c2)C(c2ccc(F)cc2)NC(=O)N1 (stereo not drawn) [GSK-180736A] equal to or greater than 10 min?
Output: 1.0

Input: Record COc1cccc(OC)c1CNC(=O)c1cc([C@@H]2CCNC[C@H]2COc2ccc3c(c2)OCO3)ccc1F ; criterion: t1/2 no lower than 10 min. Met?
Output: 1.0
